Cited source for all entries: the DeepSol protein solubility set

# Method summary: soluble on expression in E. coli; label from the status in PepcDB or PDB records
Property name: soluble on expression in E. coli

[Q] Requested read-out: soluble on expression in E. coli. Entry: MSLADKRKHRFSVRYWLWRHTSLKRVAFCGRVAASAVASVGVRCSDGRAGFAGLQSCGSVWACPVCNAKIMARRGLELGAAVETWTKHGGRVAFMTFTVRHSRKDSLTAVWDGVASGWRRVTSGKGWTSDQLRHGVEGFVRVVEVTHGRNGWHVHLHVLVFLVGDFGDALALHRSMFGRWERGVLAAGLGTPLARAQDVQQMSAATGLDHLARYLSKAQFQGKIGHELTNSQSKTARSALSTRSTWEVLGDAANGLAKEVGLWFEWEKGSRGRRQIGWSAGLRDRLGLMVEESDDVIAAEEVGSVADTVALITGDGWRRLVGQQKLYECLRSCELGGQAGLARWLQEHGIEHELVEVDEGHHHHHH
[A] soluble

[Q] Thanks! And MSTFKPLKTLTSRRQVLKAGLAALTLSGMSQAIAKDELLKTSNGHSKPKAKKSGGKRVVVLDPGHGGIDTGAIGRNGSKEKHVVLAIAKNVRSILRNHGIDARLTRSGDTFIPLYDRVEIAHKHGADLFMSIHADGFTNPKAAGASVFALSNRGASSAMAKYLSERENRADEVAGKKATDKDHLLQQVLFDLVQTDTIKNSLTLGSHILKKIKPVHKLHSRNTEQAAFVVLKSPSVPSVLVETSFITNPEEERLLGTAAFRQKIATAIAEGVISYFHWFDNQKAHSKKR ?
[A] soluble
